# assayExplanation: qHTS Assay for Lipid Storage Modulators in Drosophila S3 Cells
# recordedConditions: BODIPY lipid droplet fluorescence, 18-24 h, cells fed with added oleic acid; series mostly up to 46.1 µM
Out of some 320,000 compounds screened, about 2,100 (0.66%) were called active. Another 53% or so got no clear call; they are omitted. Calls come from the whole dose curve; as a rule, active = well fitted inhibition curve with a large enough effect in the signal ratio, with a control signal flat (not every such curve was filed as active); inconclusive = small, poorly fitted or top-dose-only effect, or effect the other way, or a change in a side signal; inactive = flat fitted curve, though single readings scatter; the % refers to the signal ratio. What follows is part of a selection rich in actives, with near analogues and random picks from the rest.
Hi! Could you answer with just one of these? 1.0 for active, 0.0 for inactive

[in] What classification did CCC1CCCCN1CCCNC(=O)C1CCCN(c2nn3c(=O)cc(C)nc3s2)C1 (stereo not given) end up with in this test?
[out] 0.0

[in] What classification did Cc1cc(=O)n2nc(N3CCCC(C(=O)NCc4ccccc4C)C3)sc2n1 (stereo not given) end up with in this test?
[out] 0.0

[in] What classification did "O=C(CN1C(=O)NC2(CCCCCCC2)C1=O)Nc1ccc(Cl)cc1" end up with in this test?
[out] 0.0

Continuing:
[in] What classification did COc1ccc(OCC(NS(=O)(=O)c2ccc(-n3cnnn3)cc2)C(C)C)cc1 (stereo not given) end up with in this test?
[out] 1.0

[in] What classification did "CCCCNc1c(-c2ccc(-c3cccc(Cl)c3)cc2)nc2ccccn12" end up with in this test?
[out] 1.0

###

# assayExplanation: qHTS Assay for Lipid Storage Modulators in Drosophila S3 Cells
# recordedConditions: BODIPY lipid droplet fluorescence, 18-24 h, cells fed with added oleic acid; series mostly up to 46.1 µM
Screen size: about 320,000 compounds; about 2,100 (0.66%) were called active. Inconclusive results (about 53%) are left out. Calls follow the shape of the dose curve; as a rule, active = well fitted inhibition curve with a large enough effect in the signal ratio, with a control signal flat (not every such curve was filed as active); inconclusive = small, poorly fitted or top-dose-only effect, or effect the other way, or a change in a side signal; inactive = flat fitted curve, though single readings scatter; the % refers to the signal ratio. Only a selection was taken, and actives are over-represented in it overall.
Hi! Could you answer with just one of these? active, inactive

[in] What classification did O=C(NCc1ccc2c(c1)OCO2)C1CCCN(S(=O)(=O)c2cccnc2)C1 (stereo not given) end up with in this test?
[out] inactive

[in] What classification did O=C(NC1CCCC1)C(c1ccncc1)N(C(=O)Cc1cccs1)c1ccc(F)cc1 (stereo not given) end up with in this test?
[out] active

Continuing:
[in] What classification did "CC(=O)Nc1ccc(S(=O)(=O)NNC(=O)C(=O)NNc2ccccn2)cc1" end up with in this test?
[out] inactive

[in] What classification did "COc1ccc(CN(CC(=O)NCc2ccccc2)C(=O)c2csnn2)cc1" end up with in this test?
[out] inactive

[in] What classification did "CN(C)c1nc(NCc2ccccc2)nc(N/N=C/c2ccc(Br)cc2)n1" end up with in this test?
[out] inactive

###

# assayExplanation: qHTS Assay for Lipid Storage Modulators in Drosophila S3 Cells;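 for cell number change: cells counted by Cell Tracker Red CMTPX staining in the red channel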
# recordedConditions: BODIPY lipid droplet fluorescence, 18-24 h, cells fed with added oleic acid; measured here: cell count max response
Among all 320,000 compounds or so, about 2,100 (0.66%) were called active. Roughly 53% stayed inconclusive and do not appear here. Many of the other results were omitted from the sample, so actives are more common in it than they were.
// label = label 1 if cell number change is not less than -20%, otherwise label 0

[in] Record Cc1ccccc1S(=O)(=O)Cc1ccc(C(=O)NC2CCC(C)CC2)o1 (centres undefined) ; criterion: cell number change no lower than -20%. Met?
[out] label 1

[in] Record O=C(NCC1CCCC(CNC(=O)Nc2ccc(Cl)cn2)C1)Nc1ccc(Cl)cn1 (centres undefined) ; criterion: cell number change no lower than -20%. Met?
[out] label 1

[in] Record "COc1ccccc1NC(=O)Nc1cccc(NC(C)=O)c1" ; criterion: cell number change no lower than -20%. Met?
[out] label 1

Each recorded value in this set is attributed to PubChem BioAssay AID2685.
